# TESTED TARGET: T1, Mouse PD-L1 Fc-fusion protein (R&D Systems, 1019-B7) (Mus musculus, UniProt Q9EP73)
# T1 construct: programmed death-ligand 1 (PD-L1, B7-H1, CD274), mouse; also called moPD-L1; B7-H1; source: bought: R&D Systems (1019-B7)
# T1 sequence (Q9EP73 19-239): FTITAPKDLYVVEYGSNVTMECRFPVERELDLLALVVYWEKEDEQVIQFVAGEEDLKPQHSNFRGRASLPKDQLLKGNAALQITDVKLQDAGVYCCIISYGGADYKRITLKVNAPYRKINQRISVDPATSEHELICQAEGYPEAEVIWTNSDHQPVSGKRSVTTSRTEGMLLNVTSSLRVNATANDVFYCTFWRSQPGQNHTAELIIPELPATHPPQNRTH
# ASSAY METHOD TEXT: SPR; Biacore T200, 25°C, HBS (0.01 M HEPES pH 7.4, 0.15 M NaCl, 3 mM EDTA, 0.005% Tween 20); mouse or human PD-L1 Fc-fusion protein amine-coupled on a CM5 chip (650-900 RU); Nb in crude periplasmic extract as analyte, its concentration estimated by CFCA; 9 dilutions, 120 s association, 160 s dissociation; 1-to-1 fit; affinity estimations
# EXPERIMENTAL CONDITIONS: one partner purified
pKd: −log10 of the molar value.
As shown below, each of these binders has a reported pKd value.
MEASUREMENT NAME: pKd

| BINDER | NUMERIC RESULT |
| --- | --- |
| Nb C1 (HA-tagged, in periplasmic extract) (VHH, source: E. coli WK6 (pHEN4), crude periplasmic extract) VHH: QVQLQESGGGLVQTGGSLRLSCAASGSTVSSSMMAWWRQTPGNQRELVALVARGNNTNYVDSVKGRFTVSRDNAKNTMYLQMNSLKPEDTAVYYCRILSVNGIWYWGQGTQVTVSS | 9.49 |
| Nb C15 (HA-tagged, in periplasmic extract) (VHH, source: E. coli WK6 (pHEN4), crude periplasmic extract) VHH: QVQLQESGGGLVQTGGSLRVSCAVSGSTVSRSTMAWWRQTPGNQRELVALVDSGGKSNYVDSVKGRFTISTDNAKNTMYLQMNSLKPEDTAVYYCRILSVQGIWYWGQGTQVTVSS | 8.19 |
| Nb M1 (HA-tagged, in periplasmic extract) (VHH, source: E. coli WK6 (pHEN4), crude periplasmic extract) VHH: VQAGDSLRLACTLFKYPTNNLCLAWFRQAPGKEREGVAALNTDGVGTYYAKSVEGRFTISQDKSKNEGYLQMDNLKPEDTAIYYCAADPTSRCNNYVQGRWWHEIGSRVWDWGQGTQVTVSS | 7.89 |
| Nb C10 (HA-tagged, in periplasmic extract) (VHH, source: E. coli WK6 (pHEN4), crude periplasmic extract) VHH: QVQLQESGGGLVQTGGSLRLSCAASGSTVSSSTMAWWRQTPGNQRELVALVASGGNTNYVDSVKGRFTVSRDNAKNTMYLQMNSLKPEDTAVYYCRILSMNGIWYWGQGTQVTVSS | 8.17 |
